Experiment: Aqueous solubility of phosphate prodrugs compared with parent compounds
Assay type: physicochemical
Conditions: water (aqueous), compounds of Examples in the form of their disodium salts, read-out: Solubility

- compound: "O=P(O)(O)OC(Cn1cncn1)(Cn1cncn1)c1ccc(F)cc1F [Example 1]"
  solubility: "> 150 mg/mL"
- compound: "C[C@@H](c1ncncc1F)[C@@](Cn1cncn1)(OP(=O)(O)O)c1ccc(F)cc1F [Example 3]"
  solubility: "> 150 mg/mL"
